Biological target: ERK1 (Homo sapiens, UniProt P27361)
Sequence (P27361 whole entry): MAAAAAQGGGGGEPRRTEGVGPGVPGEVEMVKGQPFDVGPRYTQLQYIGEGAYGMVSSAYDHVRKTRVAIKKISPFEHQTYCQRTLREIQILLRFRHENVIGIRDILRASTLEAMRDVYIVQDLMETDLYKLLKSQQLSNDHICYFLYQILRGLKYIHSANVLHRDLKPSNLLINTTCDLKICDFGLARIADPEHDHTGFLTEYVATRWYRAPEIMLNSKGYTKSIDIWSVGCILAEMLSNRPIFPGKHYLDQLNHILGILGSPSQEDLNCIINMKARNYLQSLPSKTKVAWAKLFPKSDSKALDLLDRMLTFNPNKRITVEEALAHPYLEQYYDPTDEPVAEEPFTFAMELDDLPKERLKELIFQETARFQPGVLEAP
Test: In-cell ERK1/2 pull down in competition with SCH-TCO, ERK1
Format: cell-based
outcome-measure: EC50

The measured EC50 associated with O=C(Nc1ccc2[nH]nc(-c3ccncc3)c2c1)[C@@H]1CCN(CC(=O)N2CCN(c3ccc(-c4ncccn4)cc3)CC2)C1 reads 16 nM

The measured EC50 associated with Cn1nccc1Nc1nccc(-c2cc3c(s2)C(C)(C)N(CCN2CCOCC2)C3=O)n1 reads 670 nM

----------
Test system: pRSK in A375 cells
Assay: Quantification of pRSK by MSD, A375
Assay type: cell-based
Conditions: Homo sapiens, A-375, 2 h, read-out: Pharmacodynamic IC50 (pRSK)
outcome-measure: IC50 (nM)
Respond numerically; units are nM and should not be typed.

> print(dat)
                              record.smiles  experimental.system  value.reported
1  O=C(Nc1ccc2[nH]nc(-c3ccncc3)c2c1)[C@@H]1CCN(CC(=O)N2CCN(c3ccc(-c4ncccn4)cc3)CC2)C1   pRSK in A375 cells              20

Let's switch to this compound now.
The measured IC50 associated with Cn1nccc1Nc1nccc(-c2ccn([C@H](CO)c3ccc(Cl)c(F)c3)c(=O)c2)n1 reads 170

----------
Some compounds, each annotated with its measured IC50.
Test system: pRSK in HCT116 cells
Assay: Quantification of pRSK by MSD, HCT116
Assay type: cell-based
Conditions: Homo sapiens, HCT-116, 2 h, read-out: Pharmacodynamic IC50 (pRSK)
Respond numerically; units are nM and should not be typed.

> print(dat)
                                   compound  outcome.measure  value.reported
1  Cn1nccc1Nc1nccc(-c2ccn([C@H](CO)c3ccc(Cl)c(F)c3)c(=O)c2)n1 [GDC-0994]             IC50             140

Let's switch to this compound now.
The measured IC50 associated with O=C(Nc1ccc2[nH]nc(-c3ccncc3)c2c1)[C@@H]1CCN(CC(=O)N2CCN(c3ccc(-c4ncccn4)cc3)CC2)C1 [SCH772984] reads 9

----------
Target: ERK2 (Homo sapiens)
Sequence (P28482 whole entry): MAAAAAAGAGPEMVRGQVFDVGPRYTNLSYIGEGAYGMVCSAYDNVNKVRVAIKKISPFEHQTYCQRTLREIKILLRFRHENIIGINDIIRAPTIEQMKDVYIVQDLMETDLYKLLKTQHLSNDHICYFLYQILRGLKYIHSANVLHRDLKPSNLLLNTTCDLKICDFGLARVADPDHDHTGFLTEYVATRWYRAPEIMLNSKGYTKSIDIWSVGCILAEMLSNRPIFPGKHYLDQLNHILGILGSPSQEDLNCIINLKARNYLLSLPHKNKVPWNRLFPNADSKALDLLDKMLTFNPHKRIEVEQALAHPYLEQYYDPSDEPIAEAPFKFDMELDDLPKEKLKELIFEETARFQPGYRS
Assay: In-cell ERK1/2 pull down in competition with SCH-TCO, ERK2
Format: cell-based
outcome-measure: pEC50
Friendly reminder that pEC50 comes from taking -log10 of the concentration in mol/L.

// compound Cn1nccc1Nc1nccc(-c2cc3c(s2)C(C)(C)N(CCN2CCOCC2)C3=O)n1 , assay ERK2 (Homo sapiens), pEC50 value: 6.11

----------
Biological target: ERK2 (Homo sapiens)
Experiment: ITDR-CETSA in HCT116 cells, ERK2
Assay type: cell-based
outcome-measure: pEC50
Friendly reminder that pEC50 comes from taking -log10 of the concentration in mol/L.

The measured pEC50 associated with Cn1nccc1Nc1nccc(-c2cc3c(s2)C(C)(C)N(CCN2CCOCC2)C3=O)n1 [LY3214996] reads 6.48

----------
Molecular target: ERK1 (Homo sapiens)
Test: ITDR-CETSA in HCT116 cells, ERK1
Format: cell-based
outcome-measure: EC50 (nM)
Respond numerically; units are nM and should not be typed.

> print(dat)
                              record.smiles  unit.spec  value.reported
1  Cn1nccc1Nc1nccc(-c2cc3c(s2)C(C)(C)N(CCN2CCOCC2)C3=O)n1         nM             300

The measured EC50 associated with O=C(Nc1ccc2[nH]nc(-c3ccncc3)c2c1)[C@@H]1CCN(CC(=O)N2CCN(c3ccc(-c4ncccn4)cc3)CC2)C1 reads 63
